Reference source: patent US20240228562A1

Experiment: Thermal stability assessment by nanoDSC
Assay type: physicochemical
Conditions: 1 mg/mL in PBS, scan 25-100° C. at 1° C./min, major transition

Molecule	Unit Info	TM
SEQ ID NO: 33: optimized CTGF-binding hNGAL lipocalin mutein (protein, lipocalin mutein) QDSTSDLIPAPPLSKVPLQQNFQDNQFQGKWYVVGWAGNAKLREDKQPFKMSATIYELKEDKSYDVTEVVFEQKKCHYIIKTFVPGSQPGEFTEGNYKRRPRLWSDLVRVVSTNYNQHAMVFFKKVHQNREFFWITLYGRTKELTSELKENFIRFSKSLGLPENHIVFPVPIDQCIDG	°C	72
SEQ ID NO: 5: optimized CTGF-binding hNGAL lipocalin mutein (protein, lipocalin mutein) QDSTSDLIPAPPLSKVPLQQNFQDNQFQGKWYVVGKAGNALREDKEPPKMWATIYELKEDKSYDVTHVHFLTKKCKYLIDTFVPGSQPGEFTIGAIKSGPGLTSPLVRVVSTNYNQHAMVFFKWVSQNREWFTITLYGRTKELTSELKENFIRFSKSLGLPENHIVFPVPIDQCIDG	°C	66
